Data origin: ChEMBL document CHEMBL4017509

Target: Bifunctional epoxide hydrolase 2 (Homo sapiens)
Sequence (P34913 whole entry): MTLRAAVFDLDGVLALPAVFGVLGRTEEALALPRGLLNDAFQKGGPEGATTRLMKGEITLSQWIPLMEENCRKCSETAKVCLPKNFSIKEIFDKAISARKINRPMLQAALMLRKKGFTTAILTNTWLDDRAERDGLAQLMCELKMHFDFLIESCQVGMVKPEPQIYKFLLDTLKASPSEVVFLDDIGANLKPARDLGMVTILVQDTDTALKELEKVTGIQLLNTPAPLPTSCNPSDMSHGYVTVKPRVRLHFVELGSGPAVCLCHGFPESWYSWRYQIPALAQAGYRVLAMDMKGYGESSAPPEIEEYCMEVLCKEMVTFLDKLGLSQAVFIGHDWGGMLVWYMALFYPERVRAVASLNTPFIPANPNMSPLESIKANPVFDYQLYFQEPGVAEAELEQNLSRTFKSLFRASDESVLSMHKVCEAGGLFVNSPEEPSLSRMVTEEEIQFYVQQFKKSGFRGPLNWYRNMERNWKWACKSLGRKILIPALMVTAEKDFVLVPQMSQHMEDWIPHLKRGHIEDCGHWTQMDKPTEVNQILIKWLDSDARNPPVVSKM
Assay: Inhibition of recombinant human sEH using PHOME as substrate preincubated for 30 mins followed by substrate addition measured for 30 mins by fluorescence photometric method
Conditions: read-out: IC50
Classes by IC50: 0 (below 700 nM), 1 (700 nM to below 2000 nM), 2 (2000 nM or more)

Lab log: CC(C)(C)c1ccc(C(=O)NCc2ccc(C(=O)O)cc2F)cc1 — assign IC50 category
1

Record CC(=O)Nc1ccc(CNC(=O)c2ccc(C(C)(C)C)cc2)cc1 — which class?
1

Classify this molecule: CC(C)(C)c1ccc(C(=O)NCc2ccc(CC(=O)O)cc2)cc1
2

----------
Experiment: Metabolic stability in Sprague-Dawley rat liver microsomes assessed as compound remaining at 10 uM after 60 mins by HPLC analysis
Type: ADME, microsome
Conditions: read-out: Stability
Endpoint: remaining at 1 h, 10 µM

remaining at 1 h, 10 µM lookup needed for CC(C)(C)c1ccc(C(=O)NCc2ccc(NS(C)(=O)=O)cc2Cl)cc1 , thanks.
> 50%

----------
Target: Bifunctional epoxide hydrolase 2 (Homo sapiens)
Test: Inhibition of recombinant human sEH using PHOME as substrate preincubated for 30 mins followed by substrate addition measured for 30 mins by fluorescence photometric method
Details: read-out: IC50
pIC50: −log10 of the molar value.
Binary classification by pIC50, with 5 as an inclusive lower bound for 1 (yes); all other cases are 0 (no).

INSERT INTO assay_data (chemical_smiles, target_entity, discrete_label) VALUES
  ('CC(C)(C)c1ccc(C(=O)NCc2ccc(NC(=O)C(F)(F)F)cc2Cl)cc1', 'Bifunctional epoxide hydrolase 2 (Homo sapiens)', '1 (yes)'),
  ('CC(C)(C)c1ccc(C(=O)NCc2ccc(N)cc2)cc1', 'Bifunctional epoxide hydrolase 2 (Homo sapiens)', '1 (yes)'),
  ('CC(C)(C)c1ccc(C(=O)NCc2ccc(C(=O)O)c(F)c2)cc1', 'Bifunctional epoxide hydrolase 2 (Homo sapiens)', '0 (no)'),
  ('CC(C)(C)c1ccc(NC(=O)Nc2ccc(C(=O)O)cc2)cc1', 'Bifunctional epoxide hydrolase 2 (Homo sapiens)', '0 (no)'),
  ('CCOc1ccc(CNC(=O)c2ccc(C(C)(C)C)cc2)cc1', 'Bifunctional epoxide hydrolase 2 (Homo sapiens)', '1 (yes)');

Dear colleague, could you confirm whether CC(C)(C)c1ccc(C(=O)NCc2ccc(NS(C)(=O)=O)cc2)cc1 has pIC50 at or above 5?
1 (yes)

Has CC(C)(C)c1ccc(C(=O)NCc2ccc(OC(F)(F)F)cc2)cc1 a recorded pIC50 greater than or equal to 5?
1 (yes)

Could you verify whether the entry COc1cc(C(=O)NCc2ccc(C(=O)O)cc2)ccc1C(C)(C)C shows pIC50 of no less than 5?
1 (yes)

Answer whether pIC50 of CC(C)(C)c1ccc(C(=O)NCc2ccc(C(=O)O)cc2Cl)cc1 is greater than or equal to 5.
1 (yes)

Dear colleague, could you confirm whether CN(C)C(=O)c1ccc(CNC(=O)c2ccc(C(C)(C)C)cc2)cc1 has pIC50 at or above 5?
1 (yes)

Is pIC50 at least 5? Consider CSc1ccc(CNC(=O)c2ccc(C(C)(C)C)cc2)cc1
1 (yes)

Identify whether the reported pIC50 of the following molecule is 5 or greater: CC(C)(C)c1ccc(C(=O)NCc2ccc(C(=O)O)cc2)cc1
1 (yes)
